The following molecules are listed with their measured Tmax values.
Assay: Tmax in rat at 100 mg/kg,IG measured upto 24 hrs by HPLC analysis
Assay type: ADME, organism-based
Conditions: in vivo, po
# unit: h | format: bare number

- C=CCOC(=O)Nc1nc2ccc(CCCC)cc2[nH]1: 4
- CCCCc1ccc2[nH]c(NC(=O)OC)nc2c1: 4

Ask: Give recorded Tmax. "CCCCc1ccc2nc(NC(=O)OC(C)C)[nH]c2c1"
Reply: 2

---

# inhibition per entry
Target: Tubulin (Homo sapiens) (UniProt P68371+Q9H4B7+P0DPH7+P68366+Q13509+Q71U36+P04350+Q3ZCM7+P07437+P68363+Q9BQE3+Q6PEY2+Q13885+Q9BVA1+Q9BUF5)
Assay: Inhibition of tubulin polymerization (unknown origin) at 20 micromol/L by fluorescence based analysis
Assay type: protein-complex assay
Conditions: dose 20.0 µmol/L

• CCCCc1ccc2nc(NC(=O)OCC(CC)CCCC)[nH]c2c1 (stereo not drawn) = 9.96%

Ask: Tell me measured inhibition for "CCCCc1ccc2nc(NC(=O)OCc3ccccc3)[nH]c2c1" please.
Reply: 10.5%
